Every entry's value here was drawn from patent US12091446.

Provide the reported EC50, neutralization of spike pseudotyped virus of each item.
- test-target: SARS-COV-2 spike, Mu variant (B.1.621) (SARS-COV-2, UniProt P0DTC2 14-1273)
- test-name: cell-based or functional assay
Please report the result as a number followed by the unit.

// field: EC50, neutralization of spike pseudotyped virus; key: AP1B6 Nb-huFc (Fc fusion) EVQLQASGGGFVQPGGSLRLSCAASGSAFQIYAMGWFRQAPGKEREFVSAISSTDSETDHYADSVKGRFTISRDNSKNTVYLQMNSLRAEDTATYYCAVNGFDYAHSKAGPQVYWGQGTQVTVSS ; value = 1.54 nM

// field: EC50, neutralization of spike pseudotyped virus; key: BP1A10 Nb-huFc (Fc fusion) EVQLQASGGGFVQPGGSLRLSCAASGQPSDRYIMGWFRQAPGKEREFVSAISQGAANKTAYADSVKGRFTISRDNSKNTVYLQMNSLRAEDTATYYCATHFNWQNYSYWGQGTQVTVSS ; value = 26.1 nM

// field: EC50, neutralization of spike pseudotyped virus; key: AP1D4 Nb-huFc (Fc fusion) EVQLQASGGGFVQPGGSLRLSCAASGHTFDAHRMGWFRQAPGKEREFVSAISSWGQSSTYYADSVKGRFTISRDNSKNTVYLQMNSLRAEDTATYYCAQTDEGNQYVYWGQGTQVTVSS ; value = 1.92 nM

// field: EC50, neutralization of spike pseudotyped virus; key: AP1A5 Nb-huFc (Fc fusion) EVQLQASGGGFVQPGGSLRLSCAASGSTASHYTMGWFRQAPGKEREFVSAISSGRDHAKQYADSVKGRFTISRDNSKNTVYLQMNSLRAEDTATYYCAYEEINATQKDTLYWGQGTQVTVSS ; value = 7.18 nM

// field: EC50, neutralization of spike pseudotyped virus; key: AP1C3 Nb-huFc (Fc fusion) EVQLQASGGGFVQPGGSLRLSCAASGRTYRGYSMGWFRQAPGKEREFVSAISSWSDDWTAYADSVKGRFTISRDNSKNTVYLQMNSLRAEDTATYYCAWQYIDEIQYYWGQGTQVTVSS ; value = 0.83 nM

// field: EC50, neutralization of spike pseudotyped virus; key: BP2A6 Nb-huFc (Fc fusion) EVQLQASGGGFVQPGGSLRLSCAASGQTFSHYIMGWFRQAPGKEREFVSAISAGQGHATYYADSVKGRFTISRDNSKNTVYLQMNSLRAEDTATYYCAKYQDTIAPLYWGQGTQVTVSS ; value = 2.53 nM
